# Tested on: Streptococcus mutans
# METHOD_NOTES: Antibacterial activity against Streptococcus mutans ATCC 25175 after 1 to 2 days under anaerobic condition by serial dilution method
# Type: functional
MEASURED_PROPERTY: MIC (µg/mL)
Answers are plain numbers, in µg/mL.

Below: 3 compounds and their reported MIC.
>>> test_value("C=C[C@@]1(C)CC[C@@]2(C)[C@@H](CC=C3[C@@H]2CCC[C@]3(C)C(=O)O)C1")
62.5
>>> test_value("C=C[C@@]1(C)CC[C@@]2(C)[C@@H](CC=C3[C@@H]2CCC[C@]3(C)CO[C@@H]2O[C@@H](CO)[C@H](O)[C@H]2OC(C)=O)C1")
125
>>> test_value("C=C[C@@]1(C)CC[C@@]2(C)[C@@H](CC=C3[C@@H]2CCC[C@]3(C)CO[C@@H]2O[C@@H](COC(C)=O)[C@H](O)[C@H]2O)C1")
62.5

Now take the following compound into account.
Reported MIC for "C=C[C@@]1(C)CC[C@@]2(C)[C@@H](CC=C3[C@@H]2CCC[C@]3(C)CO[C@@H]2O[C@@H](CO)[C@H](O)[C@H]2O)C1" was 62.5
